# System: Mus musculus
# test.details: Phototoxic effect in UV light irradiated mouse assessed as number of mouse bearing erythema at 140 mg/kg, after 48 hrs relative to control
# Assay type: ADME, organism-based
# Set-up: dose 140 mg/kg
# condition.label: in vivo
measure: Activity

CCn1cc(C(=O)O)c(=O)c2cc(F)c(N3CCNC(C)C3)c(F)c21 (centres undefined)
Toxic
CC1COc2c(N3CCN(C(c4ccccc4)c4ccc(Cl)cc4)CC3)c(F)c([N+](=O)[O-])c3c(=O)c(C(=O)O)cn1c23 (centres undefined)
Non-toxic
CC1COc2c(N3CCN(C(=O)c4ccco4)CC3)c(F)cc3c(=O)c(C(=O)O)cn1c23 (centres undefined)
Non-toxic
CC1COc2c(N3CCSCC3)c(F)c([N+](=O)[O-])c3c(=O)c(C(=O)O)cn1c23 (centres undefined)
Non-toxic

----------
# Tested on: Mus musculus
# test.details: Phototoxic effect in UV light irradiated mouse assessed as number of mouse bearing erythema at 140 mg/kg, after 72 hrs relative to control
# Type: ADME, organism-based
# Design: dose 140 mg/kg
# condition.label: in vivo
measure: Activity

CC1COc2c(N3CCN(C(=O)c4ccco4)CC3)c(F)cc3c(=O)c(C(=O)O)cn1c23 (centres undefined)
Non-toxic
CC1COc2c(N3CCSCC3)c(F)c([N+](=O)[O-])c3c(=O)c(C(=O)O)cn1c23 (centres undefined)
Non-toxic
CC1COc2c(N3CCN(C(c4ccccc4)c4ccc(Cl)cc4)CC3)c(F)c([N+](=O)[O-])c3c(=O)c(C(=O)O)cn1c23 (centres undefined)
Non-toxic
CCn1cc(C(=O)O)c(=O)c2cc(F)c(N3CCNC(C)C3)c(F)c21 (centres undefined)
Toxic

----------
# System: Mus musculus
# test.details: Phototoxic effect in mouse assessed as ear thickness at 140 mg/kg administered before UV light exposure relative to control
# Type: ADME, organism-based
# Set-up: dose 140 mg/kg
# condition.label: in vivo
Returns: string. Value is label 1 if measured Activity is below 0.3 mm, and label 0 if it is greater than or equal to it.

Exercise: Does the reported Activity of the following molecule sit strictly below 0.3 mm? CC1COc2c(N3CCN(C(=O)c4ccco4)CC3)c(F)cc3c(=O)c(C(=O)O)cn1c23 (stereo unspecified)
Key: label 1

Exercise: Hello, I'm reviewing records and need to know if Activity of CC1COc2c(N3CCSCC3)c(F)c([N+](=O)[O-])c3c(=O)c(C(=O)O)cn1c23 (stereo unspecified) is below 0.3 mm. Could you check?
Key: label 1

Exercise: Answer whether the molecule CC1COc2c(N3CCN(C)CC3)c(F)cc3c(=O)c(C(=O)O)cn1c23.Cl (stereo unspecified) has Activity strictly less than 0.3 mm
Key: label 1

Exercise: Below 0.3 mm on Activity? Entry CC1COc2c(N3CCC4(CC3)OCCO4)c(F)cc3c(=O)c(C(=O)O)cn1c23 (stereo unspecified)
Key: label 0

Exercise: I wonder whether CCn1cc(C(=O)O)c(=O)c2cc(F)c(N3CCNC(C)C3)c(F)c21 (stereo unspecified) [LOMEFLOXACIN] has Activity below 0.3 mm. Can you tell?
Key: label 0

Exercise: Strictly below 0.3 mm: is that where Activity of CC1COc2c(N3CCN(C(c4ccccc4)c4ccc(Cl)cc4)CC3)c(F)c([N+](=O)[O-])c3c(=O)c(C(=O)O)cn1c23 (stereo unspecified) sits?
Key: label 1
